# protocol.summary: chemical genetic growth profiling, strain panel (AID 1159580);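 further: tested at 20 µM; growth read once vehicle control cultures reached saturation at 30 °C; 1 = growth at the plate median or of vehicle wells; lower values mean less growth of the strain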
# measurement.context: S. cerevisiae deletion strains, growth OD, locus YPL078C, strain atp4, stronger effect = lower value
The campaign covered roughly 5,500 compounds. About 2,000 (36%) were called active. About 18% were inconclusive and are not listed. The list shows a part of the results. *1 amine or outer side, *2 acyl side, *3 side chain or, on linkers, in order; H or OH if unused. Where a SMILES comes first, the peptide text is derived from it. Bridges are numbered along the chain shown (N, C = ends). [ ]: non-standard residue; d: D form. The star is where a group is joined. ξ: configuration not given here. ΔAla(E,3-NHCONH2) = NC(=O)N/C=C(/N)C(=O)O; X2 = NC1=NCCC(C(N[*:1])C(=O)[*:2])N1; ξβ3hOrn = NCCCC(N)CC(=O)*; Dap = NC[CH](N)C(=O)O
Just a reminder that ties go to -1: only normalized growth strictly below 1 counts as 1.

Check out these entries, answers already filled in.
O=C(OC[C@H]1O[C@H](OC(=O)c2cc(O)c(O)c(OC(=O)c3cc(O)c(O)c(O)c3)c2)[C@H](OC(=O)c2cc(O)c(O)c(OC(=O)c3cc(O)c(O)c(O)c3)c2)[C@@H](OC(=O)c2cc(O)c(O)c(OC(=O)c3cc(O)c(O)c(O)c3)c2)[C@@H]1OC(=O)c1cc(O)c(O)c(OC(=O)c2cc(O)c(O)c(O)c2)c1)c1cc(O)c(O)c(OC(=O)c2cc(O)c(O)c(O)c2)c1: 1
CN(C)C(=N)N=C(N)N: -1
NCCCC(N)CC(=O)NCC1NC(=O)C(CO)NC(=O)C(N)CNC(=O)C(C2CCN=C(N)N2)NC(=O)/C(=C\NC(N)=O)NC1=O (stereo not drawn) (H-[Dap]S[Dap](ξβ3hOrn)[ΔAla(E,3-NHCONH2)][X2]; lactam 1-C; configuration not given here): -1

Determine if CC(NCCC(c1ccccc1)c1ccccc1)c1ccccc1 (configuration not stated) shows normalized growth strictly lower than 1.
1

Determine if COc1cc(/C=C/C(=O)N2CCC=CC2=O)cc(OC)c1OC shows normalized growth strictly lower than 1.
1

Determine if Cc1cc(=O)n(-c2ccccc2)n1C shows normalized growth strictly lower than 1.
1

====

Reported normalized growth values for a set of molecules
# protocol.summary: chemical genetic growth profiling, strain panel (AID 1159580)
# measurement.context: S. cerevisiae deletion strains, growth OD, locus YHR129C, strain ARP1, stronger effect = lower value
Among all 5,500 compounds or so, about 2,000 (36%) were called active. Roughly 18% stayed inconclusive and do not appear here. Some of the results follow.
Give your answer as a number; write no unit.

COc1cc(-c2coc3cc(O[C@@H]4O[C@H](CO)[C@@H](O)[C@H](O)[C@H]4O)c(OC)c(O)c3c2=O)cc(O)c1OC: 0.999
CN1CCN(CCCN2c3ccccc3Sc3ccc(C(F)(F)F)cc32)CC1: 0.0646
c1ccc([C@H]2CN3CCSC3=N2)cc1: 1.03

Lab note: measured normalized growth of O=C(CCc1ccc(O)cc1)c1c(O)cc(O)cc1O[C@@H]1O[C@H](CO)[C@@H](O)[C@H](O)[C@H]1O was 1.03

Lab note: measured normalized growth of CC(=O)[O][Hg][c]1ccccc1 was 0.0567

====

# protocol.summary: chemical genetic growth profiling, strain panel (AID 1159580);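 further: tested at 20 µM; growth read once vehicle control cultures reached saturation at 30 °C; 1 = growth at the plate median or of vehicle wells; lower values mean less growth of the strain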
# measurement.context: S. cerevisiae deletion strains, growth OD, locus YPL256C, strain CLN2, stronger effect = lower value
In all, about 5,500 compounds went through this assay and about 2,000 (36%) were called active. About 18% were inconclusive and are not listed. This is one part of the list. *1 amine or outer side, *2 acyl side, *3 side chain or, on linkers, in order; H or OH if unused. Where a SMILES comes first, the peptide text is derived from it. Bridges are numbered along the chain shown (N, C = ends). [ ]: non-standard residue; d: D form. The star is where a group is joined. ξ: configuration not given here. ΔAla(E,3-NHCONH2) = NC(=O)N/C=C(/N)C(=O)O; X2 = NC1=NCCC(C(N[*:1])C(=O)[*:2])N1; ξβ3hOrn = NCCCC(N)CC(=O)*; Dap = NC[CH](N)C(=O)O
Just a reminder that ties go to not satisfied: only normalized growth strictly below 1 counts as satisfied.

Check out these entries, answers already filled in.
NC[C@H]1O[C@H](O[C@H]2[C@H](O)[C@@H](O[C@H]3O[C@H](CO)[C@@H](O)[C@H](N)[C@H]3O)[C@H](N)C[C@@H]2N)[C@H](N)C[C@@H]1O: satisfied
NC(=O)NO: satisfied

Next up:
Determine if NCCCC(N)CC(=O)NCC1NC(=O)C(CO)NC(=O)C(N)CNC(=O)C(C2CCN=C(N)N2)NC(=O)/C(=C\NC(N)=O)NC1=O (stereo not drawn) (H-[Dap]S[Dap](ξβ3hOrn)[ΔAla(E,3-NHCONH2)][X2]; lactam 1-C; configuration not given here) shows normalized growth strictly lower than 1.
not satisfied

====

Reported normalized growth values for a set of compounds
# protocol.summary: chemical genetic growth profiling, strain panel (AID 1159580);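 further: tested at 20 µM; growth read once vehicle control cultures reached saturation at 30 °C; 1 = growth at the plate median or of vehicle wells; lower values mean less growth of the strain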
# measurement.context: S. cerevisiae deletion strains, growth OD, locus YHR094C, strain hxt1, stronger effect = lower value
The whole screen tested about 5,500 compounds, of which about 2,000 (36%) were called active. Not shown: some 18% with an inconclusive outcome. The list shows a part of the results.
Give your answer as a number; write no unit.

Solved cases (6 shown):
CCN(CC)CCNC(=O)c1cc(Cl)c(N)cc1OC: 0.992
COc1cccc(O)c1O: 1
COc1cc(O)cc(OC)c1OC: 0.992
COc1ccc2c(c1OC)OC[C@@H](c1ccc(OC)c(OC)c1OC)C2: 1.01
CC(=O)[C@@]1(O)CCC2C3CCC4=CC(=O)CC[C@]4(C)C3CC[C@@]21C (some centres not stated): 0.999
COc1ccc([C@H]2COc3c(ccc(O)c3OC)C2)c(OC)c1O: 0.98

Lab note: measured normalized growth of O=c1oc2c(O)c(O)cc3c(=O)oc4c(O)c(O)cc1c4c23 was 0.964

Lab note: measured normalized growth of CC(=O)CC1CCCCN1 (configuration not stated) was 0.991

====

# protocol.summary: chemical genetic growth profiling, strain panel (AID 1159580);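 further: tested at 20 µM; growth read once vehicle control cultures reached saturation at 30 °C; 1 = growth at the plate median or of vehicle wells; lower values mean less growth of the strain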
# measurement.context: S. cerevisiae deletion strains, growth OD, locus YER155C, strain BEM2 (second series)
The campaign covered roughly 5,500 compounds. About 2,000 (36%) were called active. About 18% were inconclusive and are not listed. Rule as the data show it: active = normalized growth mostly below about 0.91 (no sharp cut-off); inconclusive = no clear call, values can overlap the other calls; inactive = mostly above about 0.92. The list shows a part of the results. Where a SMILES comes first, the peptide text is derived from it. Side-chain parts run from the residue outwards. [ ]: non-standard residue; d: D form. The star is where a group is joined. X1 = CCC(C)C(N)C1=NC(C(=O)*)CS1; Orn = NCCC[CH](N)C(=O)O
Output constraint: value belongs to active, inactive

Check out these entries, answers already filled in.
COC(=O)[C@]1(C)CC[C@]2(C)CC[C@]3(C)C4=CC=C5C(=CC(=O)C(O)=C5C)[C@]4(C)CC[C@@]3(C)[C@@H]2C1: active
Cc1cc(C(C)(C)C)c(O)c(C)c1CC1=NCCN1: inactive
Cc1onc(-c2c(Cl)cccc2Cl)c1C(=O)N[C@@H]1C(=O)N2[C@@H]1SC(C)(C)[C@@H]2C(=O)O: inactive

Recorded test call requested for CC(=O)Oc1cc2c(c(C)c1OC(C)=O)CC1OC13C2(C)CCC1(C)C2CC(C)(C(=O)O)CCC2(C)CCC13C (stereo not given)
inactive

Recorded test call requested for CC(C)CC1NC(=O)C(CCCN)NC(=O)C(C(C)C)NC(=O)C2CCCN2C(=O)C(Cc2ccccc2)NC(=O)C(CC(C)C)NC(=O)C(CCCN)NC(=O)C(C(C)C)NC(=O)C2CCCN2C(=O)C(Cc2ccccc2)NC1=O (stereo not given) (cyclo(FPV[Orn]LFPV[Orn]L); configuration not given here)
active

Recorded test call requested for CN1C(=O)CCS(=O)(=O)C1c1ccc(Cl)cc1 (stereo not given)
inactive

Recorded test call requested for NC(=O)N1c2ccccc2C=Cc2ccccc21
inactive

Recorded test call requested for COc1ccc(C2C(=O)c3ccccc3C2=O)cc1
inactive

Recorded test call requested for COc1ccc2c(c1)[C@]13CCCC[C@H]1[C@H](C2)N(C)CC3
inactive

Recorded test call requested for COc1cc(/C=C/C(=O)N2CCC=CC2=O)cc(OC)c1OC
inactive

Recorded test call requested for C[C@]12CCC(=O)C=C1CCC1C2C(=O)C[C@@]2(C)C1CC[C@]2(O)C(=O)CO (stereo not given in full)
inactive

Recorded test call requested for CN1CCN(CCC=C2c3ccccc3Sc3ccc(S(=O)(=O)N(C)C)cc32)CC1
active

Recorded test call requested for CN(C)CCc1c[nH]c2ccc(C[C@H]3COC(=O)N3)cc12
inactive

Recorded test call requested for CCCc1nc2c(C)cc(-c3nc4ccccc4n3C)cc2n1Cc1ccc(-c2ccccc2C(=O)O)cc1
inactive

Recorded test call requested for CCC(C)C(N)C1=NC(C(=O)NC(CC(C)C)C(=O)NC(CCC(=O)O)C(=O)NC(C(=O)NCCCCC2NC(=O)C(CC(N)=O)NC(=O)C(CC(=O)O)NC(=O)C(Cc3cnc[nH]3)NC(=O)C(Cc3ccccc3)NC(=O)C(C(C)CC)NC(=O)C(CCCN)NC2=O)C(C)CC)CS1 (stereo not drawn) (cyclo(DNK([Ile-Glu-Leu-X1])[Orn]IFH); configuration not given here)
inactive

Recorded test call requested for CN1CCN(CCCN2c3ccccc3Sc3ccc(C(F)(F)F)cc32)CC1
inactive
